- Organism: Homo sapiens
- Protocol notes: Inhibition of 10 uM ADP induced platelet aggregation in human platelet rich citreated plasma (PRP)
- Type: functional
pIC50: −log10 of the molar value.
Reported metric: pIC50

>>> measured_value("COc1ccc(C[C@@H]2NC(=O)[C@H](CC(=O)O)NC(=O)CNC(=O)[C@H](CCCCN)NC(=O)[C@@H]3CCCN3C(=O)[C@H](CC(N)=O)NC(=O)[C@@H](NC(C)=O)CSSC[C@@H](C(N)=O)NC(=O)[C@H](CCCN=C(N)N)NC2=O)cc1")
6.15
>>> measured_value("COc1ccc(C[C@@H]2NC(=O)[C@H](CC(=O)O)NC(=O)CNC(=O)[C@H](CCCN=C(N)N)NC(=O)[C@@H](Cc3c[nH]cn3)NC(=O)CNC(=O)[C@@H](NC(=O)[C@@H](N)CCCN=C(N)N)C3(CCCCC3)SSC[C@@H](C(=O)N[C@@H](CCCN=C(N)N)C(=O)O)NC(=O)[C@H](CCCN=C(N)N)NC2=O)cc1")
6.40
>>> measured_value("CC(C)[C@H]1NC(=O)[C@H](CC(=O)O)NC(=O)CNC(=O)[C@H](CCCN=C(N)N)NC(=O)[C@@H](Cc2c[nH]cn2)NC(=O)CNC(=O)[C@@H](N)CCC/N=C(/N)NC(=O)[C@H](N)C2(CCCCC2)SSC[C@@H](C(=O)N[C@@H](CCCN=C(N)N)C(=O)O)NC(=O)[C@H](CCCN=C(N)N)NC1=O")
6.16
>>> measured_value("COc1ccc(C[C@@H]2NC(=O)[C@H](CC(=O)O)NC(=O)CNC(=O)[C@H](CCCNC(=N)N)NC(=O)[C@H](Cc3ccc(O)cc3)NC(=O)CNC(=O)[C@@H](NC(=O)[C@@H](N)CCCNC(=N)N)C3(CCCCC3)SSC[C@@H](C(=O)N[C@@H](CCCNC(=N)N)C(=O)O)NC(=O)[C@H](CCCNC(=N)N)NC2=O)cc1")
6.07
>>> measured_value("CC(=O)N[C@H]1CSSC[C@@H](C(N)=O)NC(=O)[C@H](CCCN=C(N)N)NC(=O)[C@H](Cc2ccc([N+](=O)[O-])cc2)NC(=O)[C@H](CC(=O)O)NC(=O)CNC(=O)[C@H](CCCN=C(N)N)NC(=O)[C@@H]2CCCN2C(=O)[C@H](CC(N)=O)NC1=O")
6.08
>>> measured_value("CC(C)C[C@@H]1NC(=O)[C@H](CC(=O)O)NC(=O)CNC(=O)[C@H](CCCNC(=N)N)NC(=O)[C@H](Cc2c[nH]cn2)NC(=O)CNC(=O)[C@H](NC(=O)[C@@H](N)CCCNC(=N)N)C(C)(C)SSC[C@@H](C(=O)N[C@@H](CCCNC(=N)N)C(=O)O)NC(=O)[C@H](CCCNC(=N)N)NC1=O")
5.39
>>> measured_value("COc1ccc(C[C@@H]2NC(=O)[C@H](CC(=O)O)NC(=O)CNC(=O)[C@H](CCCN=C(N)N)NC(=O)[C@H](Cc3c[nH]cn3)NC(=O)[C@H](CC(=O)O)NC(=O)[C@@H](NC(=O)[C@@H](N)CCCN=C(N)N)C3(CCCCC3)SSC[C@@H](C(=O)N[C@@H](CCCN=C(N)N)C(=O)O)NC(=O)[C@H](CCCN=C(N)N)NC2=O)cc1")
5.56
